Target: Aap lectin domain (Staphylococcus epidermidis, UniProt Q5HKE8)
Sequence (Q5HKE8 351-605): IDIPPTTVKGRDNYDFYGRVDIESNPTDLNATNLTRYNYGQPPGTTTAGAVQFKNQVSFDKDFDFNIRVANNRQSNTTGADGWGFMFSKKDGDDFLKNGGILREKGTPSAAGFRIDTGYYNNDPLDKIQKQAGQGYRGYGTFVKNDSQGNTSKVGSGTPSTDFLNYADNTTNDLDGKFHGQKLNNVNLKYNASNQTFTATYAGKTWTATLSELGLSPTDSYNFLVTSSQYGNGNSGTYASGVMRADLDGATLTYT
Test: ITC
Assay type: binding
Conditions: read-out: affinity; pH 7.2, 50 mM phosphate, 150 mM NaCl, 25 °C
pKd: −log10 of the molar value.
MEASURED_ATTRIBUTE: pKd

Query string: // Input: CC(=O)N[C@H]1C(O)O[C@H](CO)[C@@H](O[C@@H]2O[C@H](CO)[C@H](O)[C@H](O)[C@H]2O)[C@@H]1O (stereo partly shown) . Output its pKd only.
Result string: ~3.89
